- SYSTEM_UNDER_TEST: mAChR M1 (UniProt P11229)
- TEST_METHOD_NOTES: mAChR M1 cell-based functional assay (calcium mobilization, potentiation of EC20 acetylcholine response)
- CONDITION_LABEL: % ACh maximum at 30 μM
PARAMETER: Emax (%)

Cn1cc(-c2ccc(CN3C(=O)C4(CCN(C5CCC(F)(F)CC5)C4)c4ccccc43)c(F)c2)cn1 (centres unmarked)
53
CN1CCC2(CC1)C(=O)N(Cc1ccc(-c3cnn(C)c3)cc1F)c1ccccc12
48
CCCn1cc(-c2ccc(CN3C(=O)C4(CCN(C5CCCC5)C4)c4ccccc43)c(F)c2)cn1 (centres unmarked)
41
Cn1cc(-c2ccc(CN3C(=O)C4(CCN(C5CCCOC5)C4)c4ccccc43)c(F)c2)cn1 (single isomer, unassigned) [Compound B68]
60
Cn1cc(-c2ccc(CN3C(=O)C4(CCN(CC5CCCCC5)C4)c4ccccc43)c(F)c2)cn1 (single isomer, unassigned) [Compound B72]
36
CC(C)N1CCC(N2CCC3(C2)C(=O)N(Cc2ccc(-c4cnn(C)c4)cc2F)c2ccccc23)CC1 (centres unmarked)
49
CN1CCC(N2CCC3(CC2)C(=O)N(Cc2ccc(-c4cnn(C)c4)cc2F)c2ccccc23)CC1
51

---

- SYSTEM_UNDER_TEST: mAChR M1 (UniProt P11229)
- TEST_METHOD_NOTES: mAChR M1 cell-based functional assay (calcium mobilization, potentiation of EC20 acetylcholine response)
- CONDITION_LABEL: CHO-K1 cells expressing mAChR M1; increase in EC20 acetylcholine response; >10 μM estimated where no plateau in the curve
pEC50: −log10 of the molar value.
PARAMETER: pEC50

(1) CC1CCCC1N1CCC2(C1)C(=O)N(Cc1ccc(-c3cnn(C)c3)cc1F)c1ccccc12 (stereo not shown) [Compound B54]
(2) Cn1cc(-c2ccc(CN3C(=O)C4(CCN(C5CCC5)C4)c4ccccc43)c(F)c2)cn1 (stereo not shown) [Compound B14]
QUERY: Would you let me know which has the greater pEC50 value, 1 or 2 ? In your reply, give the label of the chosen option.
RESULT: 2
(2: 5.59, 1: 5.15)

---

- SYSTEM_UNDER_TEST: mAChR M1 (UniProt P11229)
- TEST_METHOD_NOTES: mAChR M1 cell-based functional assay (calcium mobilization, potentiation of EC20 acetylcholine response)
- CONDITION_LABEL: % ACh maximum at 30 μM
PARAMETER: Emax (%)

// below: answered compounds
CN1CCC(N2CCC3(C2)C(=O)N(Cc2ccc(-c4cnn(C)c4)cc2F)c2ccccc23)CC1 (centres unmarked)
63
Cn1cc(-c2ccc(CN3C(=O)C4(CCN(CC5CCCCC5)C4)c4ccccc43)c(F)c2)cn1 (centres unmarked) [Compound B61]
36
CN1CCC2(C1)C(=O)N(Cc1c(F)cc(-c3cccc4nn(C)cc34)cc1F)c1ccccc12 (centres unmarked)
66
CCn1cc(-c2ccc(CN3C(=O)C4(CCN(C5CCCC5)C4)c4ccccc43)c(F)c2)cn1 (centres unmarked)
45
Cn1cc(-c2ccc(CN3C(=O)C4(CCN(CC5CC5)C4)c4ccccc43)c(F)c2)cn1 (centres unmarked)
60

(A) CN1CCCC12C(=O)N(Cc1ccc(-c3cnn(C)c3)cc1)c1ccccc12 (centres unmarked)
(B) CN1CCC2(C1)C(=O)N(Cc1ccc(-c3cnn(C)c3)cc1F)c1ccccc12 (single isomer, unassigned) [Compound B31]
QUERY: Of A versus B , which is the one with smaller reported Emax? In your reply, give the label of the chosen option.
RESULT: A
